# Tested on: PXR:RXRa (NR concentration 270 nM, RXRa partner concentration 90 nM)
# Procedure Summary: PBM binding z-score (relative to random genomic background probes); higher = stronger binding; sequences stand for … in GC…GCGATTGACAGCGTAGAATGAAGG
Outcome: YES for PBM binding z-score of at least 0.2; NO for anything lower.

ACTAGTTCGTCAGCTGAGGTCACACACAATTCGG :: YES
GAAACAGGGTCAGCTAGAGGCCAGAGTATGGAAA :: YES
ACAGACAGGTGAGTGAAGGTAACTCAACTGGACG :: NO
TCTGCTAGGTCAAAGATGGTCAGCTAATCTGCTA :: YES
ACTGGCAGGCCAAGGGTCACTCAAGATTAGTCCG :: YES
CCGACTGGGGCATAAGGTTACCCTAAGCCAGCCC :: YES
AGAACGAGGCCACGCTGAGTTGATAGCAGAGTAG :: NO
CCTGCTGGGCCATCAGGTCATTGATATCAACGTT :: YES
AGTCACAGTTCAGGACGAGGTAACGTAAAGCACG :: YES
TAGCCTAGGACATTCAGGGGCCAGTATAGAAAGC :: NO
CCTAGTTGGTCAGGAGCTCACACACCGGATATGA :: NO
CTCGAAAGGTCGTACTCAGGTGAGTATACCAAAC :: YES
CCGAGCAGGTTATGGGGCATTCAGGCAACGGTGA :: NO
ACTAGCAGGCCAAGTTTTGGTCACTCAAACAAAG :: NO
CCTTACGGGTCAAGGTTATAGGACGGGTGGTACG :: YES
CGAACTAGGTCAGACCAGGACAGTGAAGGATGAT :: YES
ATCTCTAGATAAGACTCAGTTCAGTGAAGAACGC :: YES
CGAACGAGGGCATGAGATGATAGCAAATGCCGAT :: NO
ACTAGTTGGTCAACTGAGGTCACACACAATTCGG :: YES
GGAACGAGGGCAAGTTGATACCAGAGTTTGATGG :: YES
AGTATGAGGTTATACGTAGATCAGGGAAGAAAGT :: YES
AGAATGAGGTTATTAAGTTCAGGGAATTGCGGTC :: YES
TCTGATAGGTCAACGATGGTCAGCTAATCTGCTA :: YES
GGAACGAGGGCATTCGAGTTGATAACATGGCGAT :: YES
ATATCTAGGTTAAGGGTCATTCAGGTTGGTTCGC :: YES
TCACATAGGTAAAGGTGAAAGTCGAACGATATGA :: YES

====

The following sequences are shown together with reported PBM binding z-score values.
# Tested on: PPARg DBDmut IVT, anti-PPARg (DBD mutation: PPARg1 K132A/R137A, NR concentration 270 nM)
# Procedure Summary: PBM binding z-score (relative to random genomic background probes); higher = stronger binding; sequences stand for … in GC…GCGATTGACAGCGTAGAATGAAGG
Reported Metric: PBM binding z-score

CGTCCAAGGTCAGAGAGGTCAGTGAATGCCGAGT :: -0.412
GCAAGCAGGCCATTTGGGTCACTCAATGACGGGC :: -0.988
ATGCCAAGGTGATCGTGAGGTCGTTGATACTAAC :: -0.951
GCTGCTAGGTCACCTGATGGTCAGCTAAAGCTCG :: 0.446
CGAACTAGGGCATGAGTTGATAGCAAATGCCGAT :: 0.0296
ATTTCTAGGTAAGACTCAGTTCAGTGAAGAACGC :: 1.76
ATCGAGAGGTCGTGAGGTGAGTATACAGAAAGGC :: 0.618
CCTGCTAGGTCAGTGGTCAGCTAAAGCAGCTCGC :: -1.65

====

# Tested on: LXRb homodimer (NR concentration 270 nM)
# Procedure Summary: PBM binding z-score (relative to random genomic background probes); higher = stronger binding; sequences stand for … in GC…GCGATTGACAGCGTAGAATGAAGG
Reported Metric: PBM binding z-score

AGAATGAAGTTATACGTAGATCAGGGAAGAAAGT :: -0.391
GGAACGAGGGCAAGTTGCTAGCAGAGTTTGATGG :: -0.392
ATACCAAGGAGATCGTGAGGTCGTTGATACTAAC :: -0.481
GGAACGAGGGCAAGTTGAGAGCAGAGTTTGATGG :: -0.627
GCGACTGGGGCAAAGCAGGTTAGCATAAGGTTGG :: -1.24

====

# Tested on: PPARg:RXRa 90nM:30nM, anti-RXR (NR concentration 90 nM, RXRa partner concentration 30 nM)
# Procedure Summary: PBM binding z-score (relative to random genomic background probes); higher = stronger binding; sequences stand for … in GC…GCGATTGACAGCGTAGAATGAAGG
Label rule, in plain words: PBM binding z-score of 1 and up is t, under 1 is f.

CCTACTGGGCCCTCAGGTCATTGATATCAACGTT :: f
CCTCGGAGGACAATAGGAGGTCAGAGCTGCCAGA :: f
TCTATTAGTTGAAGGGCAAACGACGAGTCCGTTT :: t
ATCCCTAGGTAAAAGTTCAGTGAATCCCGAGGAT :: t
ATATGTAGGTTTCATCCGGGTCATTCAGGCTATG :: t
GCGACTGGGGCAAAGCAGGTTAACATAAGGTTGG :: f
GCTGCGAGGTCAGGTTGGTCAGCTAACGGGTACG :: t

====

# Test system: RXRa homodimer (NR concentration 180 nM)
# Procedure Summary: PBM binding z-score (relative to random genomic background probes); higher = stronger binding; sequences stand for … in GC…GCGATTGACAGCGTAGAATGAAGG
Give T when the value for PBM binding z-score is at least 1. Give F when it is less.

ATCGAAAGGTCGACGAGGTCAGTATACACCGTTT :: T
GCTAGTTGGTCAGTACAAGGTCACACACCGGTCG :: T
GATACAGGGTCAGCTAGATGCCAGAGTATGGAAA :: T
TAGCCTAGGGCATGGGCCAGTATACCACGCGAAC :: F
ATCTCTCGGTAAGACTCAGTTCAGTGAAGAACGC :: F
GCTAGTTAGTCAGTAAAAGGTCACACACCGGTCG :: T
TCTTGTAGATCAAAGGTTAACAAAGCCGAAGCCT :: T
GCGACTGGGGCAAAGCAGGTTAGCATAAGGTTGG :: F
CGTCCAGGGTCAAAGGTCAGTGAAGAGATGACGG :: T
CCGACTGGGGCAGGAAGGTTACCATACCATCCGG :: F
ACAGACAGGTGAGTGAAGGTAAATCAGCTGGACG :: F
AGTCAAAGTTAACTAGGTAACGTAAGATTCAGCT :: F
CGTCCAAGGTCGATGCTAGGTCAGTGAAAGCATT :: T
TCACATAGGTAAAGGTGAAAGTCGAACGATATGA :: T
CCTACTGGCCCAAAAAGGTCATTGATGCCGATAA :: T

====

Reported PBM binding z-score values for the following sequences.
# Tested on: VDR:RXRa (NR concentration 270 nM, RXRa partner concentration 90 nM)
# Procedure Summary: PBM binding z-score (relative to random genomic background probes); higher = stronger binding; sequences stand for … in GC…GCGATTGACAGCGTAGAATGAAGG
Reported Metric: PBM binding z-score

CCTCACGGGTCACTCCAGGTTATAGCATCGGAGT :: 4.07
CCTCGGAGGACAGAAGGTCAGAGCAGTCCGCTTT :: 1.82
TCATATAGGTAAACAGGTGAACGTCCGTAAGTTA :: 1.19
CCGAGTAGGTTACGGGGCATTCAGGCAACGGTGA :: 0.208
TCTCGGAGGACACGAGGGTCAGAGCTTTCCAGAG :: 1.7
ATTTCTAGGTAACCAAGTTCAGTGAATGCCGAAC :: 4.22
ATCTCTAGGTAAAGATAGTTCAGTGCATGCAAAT :: 0.777
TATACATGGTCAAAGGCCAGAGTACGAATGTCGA :: 0.445
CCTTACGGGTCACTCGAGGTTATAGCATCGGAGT :: 5.11
GCTAGTAGTTGAAAGGGCAACCGAATGATTCTCG :: 0.183
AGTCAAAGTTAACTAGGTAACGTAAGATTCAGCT :: -0.0453
CGTCCAAGGTCAATGCTAGGTCAGTGACAGCATT :: 4.87
CCTACCGGGCCACGAAAGGTCATTGATTCAGTGA :: 4.1

====

# Test system: VDR homodimer (NR concentration 270 nM)
# Procedure Summary: PBM binding z-score (relative to random genomic background probes); higher = stronger binding; sequences stand for … in GC…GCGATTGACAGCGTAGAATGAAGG
Reported Metric: PBM binding z-score

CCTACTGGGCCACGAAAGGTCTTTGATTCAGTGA :: -0.432
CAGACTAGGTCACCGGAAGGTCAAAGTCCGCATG :: 3.42
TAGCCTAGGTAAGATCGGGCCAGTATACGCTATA :: -0.857
CCAGATAGGTGAGAAGGTAACTCAGCCTCGATTA :: -0.157
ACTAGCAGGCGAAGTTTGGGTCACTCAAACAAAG :: -0.246
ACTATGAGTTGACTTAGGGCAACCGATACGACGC :: 1.26
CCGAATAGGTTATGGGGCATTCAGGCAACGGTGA :: -0.175
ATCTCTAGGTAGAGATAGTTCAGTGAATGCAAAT :: 0.338
CCTACTGGGCCAAAGGTCATTGAGTCCAATGCTC :: 4.9
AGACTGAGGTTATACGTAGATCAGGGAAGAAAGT :: 0.49
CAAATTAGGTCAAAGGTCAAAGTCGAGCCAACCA :: 3.43
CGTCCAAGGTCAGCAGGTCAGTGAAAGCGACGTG :: 1.77

Measured values drawn from the supplement of paper PMC6555819 for this set.
